system: HEK293-EGFP-eIF2a cells; experiment: PERK Cellular Assay (TR-FRET, GFP-eIF2α, tunicamycin-induced ER stress); type: cell-based, human; settings: HEK293-EGFP-eIF2a cells, tunicamycin 2 hours, TR-FRET; read-out: Cellular eIF2α IC50
Experimental Endpoint: IC50

Study these solved cases before continuing.
What value of measured IC50 is listed for Cc1cccc(C(O)C(=O)N2CCc3c2ccc(-c2nc(C4CC(C)(O)C4)n4cc(C)nc(N)c24)c3F)n1 (single isomer, unassigned) ?
3000 to 4000 nM

Check CC(C)NC(=O)c1cc(-c2ccc3c(c2F)CCN3C(=O)C(O)c2cc(F)cc(F)c2)cnc1N (single isomer, unassigned) [Example 6] too.
251 to 500 nM

Proceed to Cn1cc(-c2ccc3c(c2F)CCN3C(=O)C(O)c2ccccc2)c2c(N)ncnc21 (single isomer, unassigned) [Example 2]
101 to 250 nM

Please give IC50, item by item, for the list that follows.
1. Cc1nc(N)c2c(-c3ccc4c(c3)CCN4C(=O)C(O)c3cc(F)cc(C(F)(F)F)c3)cn(C)c2n1 (single isomer, unassigned) [Example 20]
2. Cn1cc(-c2ccc3c(c2F)CCN3C(=O)C(N)c2ccccc2)c2c(N)ncnc21 (single isomer, unassigned)
3. Cc1cn2c(C3CC(C)(O)C3)nc(-c3ccc4c(c3F)CCN4C(=O)C(O)c3cccc(F)c3)c2c(N)n1 (single isomer, unassigned) [Example 14]
4. Cn1cc(-c2ccc3c(c2F)CCN3C(=O)C(O)c2ccccc2)c2c(N)ncnc21 (single isomer, unassigned) [Example 1]
5. Cc1nc(N)c2c(-c3ccc4c(c3)CCN4C(=O)C(O)c3cc(F)cc(C(F)(F)F)c3)cn(C)c2n1 (single isomer, unassigned) [Example 19]
6. CC(C)NC(=O)c1cc(-c2ccc3c(c2F)CCN3C(=O)C(O)c2cc(F)cc(F)c2)cnc1N (single isomer, unassigned) [Example 7]
7. Cc1cn2c(C3CC(C)(O)C3)nc(-c3ccc4c(c3F)CCN4C(=O)C(O)c3cccc(F)c3)c2c(N)n1 (single isomer, unassigned) [Example 13]

1: 26 to 50 nM; 2: 51 to 100 nM; 3: 51 to 100 nM; 4: 1 to 25 nM; 5: 101 to 250 nM; 6: 101 to 250 nM; 7: 251 to 500 nM

---

biological target: EIF2AK3 (PERK) catalytic domain (amino acids 536-1116) (Homo sapiens, UniProt Q9NZJ5); construct: EIF2AK3 (PERK) catalytic domain (amino acids 536-1116); purchased Invitrogen, Carlsbad, Calif; assay: PERK In Vitro Activity Assay (Isolated), TR-FRET kinase assay; type: biochemical; conditions: isolated PERK enzyme, 1.5 μM ATP, read-out: Biochemical IC50
Sequence (Q9NZJ5 536-1116): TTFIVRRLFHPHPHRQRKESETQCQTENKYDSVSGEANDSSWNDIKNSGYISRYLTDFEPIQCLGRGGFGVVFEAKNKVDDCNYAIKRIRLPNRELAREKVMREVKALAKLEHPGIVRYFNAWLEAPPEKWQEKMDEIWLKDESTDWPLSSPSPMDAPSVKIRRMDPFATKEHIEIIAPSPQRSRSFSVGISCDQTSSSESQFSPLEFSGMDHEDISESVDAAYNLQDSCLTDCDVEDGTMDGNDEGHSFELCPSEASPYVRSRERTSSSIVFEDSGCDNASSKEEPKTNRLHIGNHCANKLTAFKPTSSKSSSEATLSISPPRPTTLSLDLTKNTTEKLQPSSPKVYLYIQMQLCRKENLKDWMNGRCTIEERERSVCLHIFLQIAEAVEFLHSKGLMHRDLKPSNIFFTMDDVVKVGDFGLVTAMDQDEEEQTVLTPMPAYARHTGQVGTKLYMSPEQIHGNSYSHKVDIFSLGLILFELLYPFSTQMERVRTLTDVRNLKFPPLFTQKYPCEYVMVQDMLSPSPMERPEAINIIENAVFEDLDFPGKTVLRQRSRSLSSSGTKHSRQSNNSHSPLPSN
I'd be grateful if you could share measured IC50 for these entries.

Completed entries (count: 5):
Can you look up the measured IC50 of `Cc1cc(C)n(CC(=O)N2CCc3c2ccc(-c2cn(C)c4nc(C)nc(N)c24)c3F)n1` for me?
1 to 25 nM

Could you do the same for Cc1cn2c(C3CC(C)(O)C3)nc(-c3ccc4c(c3F)CCN4C(=O)C(O)c3cccc(F)c3)c2c(N)n1 (single isomer, unassigned) [Example 13] , please?
26 to 50 nM

How about Cn1cc(-c2ccc3c(c2F)CCN3C(=O)C(O)c2ccccc2)c2c(N)ncnc21 (single isomer, unassigned) [Example 2] ?
51 to 100 nM

What about this molecule? Cc1nc(N)c2c(-c3ccc4c(c3F)CCN4C(=O)C(O)c3ccccc3)cn(C)c2n1 (racemic)
26 to 50 nM

Also check Cn1cc(-c2ccc3c(c2F)CCN3C(=O)C(O)c2ccccc2)c2c(N)ncnc21 (single isomer, unassigned) [Example 1]
1 to 25 nM

Kindly give each listed record's IC50.
1. Cn1cc(-c2ccc3c(c2F)CCN3C(=O)C(F)(F)c2ccccc2)c2c(N)ncnc21
2. Cc1cccc(CC(=O)N2CCc3c2ccc(-c2cn(C)c4nc(C)nc(N)c24)c3F)n1

["26 to 50 nM", "1 to 25 nM"]

Would you be so kind as to report IC50 for each listed record?
1. Cc1nc(N)c2c(-c3ccc4c(c3F)CCN4C(=O)C(O)c3cc(F)cc(F)c3)cn(C)c2n1 (racemic)
2. Cc1nc(-c2ccc3c(c2)CCN3C(=O)Cc2cc(F)cc(C(F)(F)F)c2)c2c(N)ncc(Cl)n12
3. Cc1cccc(CC(=O)N2CCc3c2ccc(-c2nc(C)n4cc(C)nc(N)c24)c3F)n1
4. CC(C)NC(=O)c1cc(-c2ccc3c(c2F)CCN3C(=O)C(O)c2cc(F)cc(F)c2)cnc1N (single isomer, unassigned) [Example 7]

1: 1 to 25 nM; 2: 1 to 25 nM; 3: 101 to 250 nM; 4: 51 to 100 nM

I'm hoping you can list IC50 for every molecule here, please.
1. Cc1nc(N)c2c(-c3ccc4c(c3)CCN4C(=O)C(O)c3cc(F)cc(C(F)(F)F)c3)cn(C)c2n1 (single isomer, unassigned) [Example 20]
2. CC(C)NC(=O)c1cc(-c2ccc3c(c2F)CCN3C(=O)C(O)c2cc(F)cc(F)c2)cnc1N (single isomer, unassigned) [Example 6]
3. Cn1cc(-c2ccc3c(c2F)CCN3C(=O)Nc2ccccc2)c2c(N)ncnc21
4. CCc1cnc(N)c2c(-c3ccc4c(c3F)CCN4C(=O)Cc3cccc(C)n3)nc(C)n12
5. Cc1cccc(CC(=O)N2CCc3c2ccc(-c2cnc(N)c(C(=O)NC(C)C)c2)c3F)n1
6. Cc1cccc(CC(=O)N2CCc3c2ccc(-c2nc(C)n4c(C)cnc(N)c24)c3F)n1

["26 to 50 nM", "101 to 250 nM", "101 to 250 nM", "51 to 100 nM", "51 to 100 nM", "51 to 100 nM"]

---

target: EIF2AK3 (PERK) catalytic domain (amino acids 536-1116) (Homo sapiens, UniProt Q9NZJ5); construct: EIF2AK3 (PERK) catalytic domain (amino acids 536-1116); purchased Invitrogen, Carlsbad, Calif; assay: PERK In Vitro Activity Assay (Isolated), TR-FRET kinase assay; format: biochemical; conditions: Biochemical IC50 (μM), isolated PERK enzyme, 1.5 μM ATP
Kindly state IC50 for each of the entries shown.

Write down the reported IC50 of Cn1cc(-c2ccc3c(c2F)CCN3C(=O)Cc2cccc(C(F)(F)F)n2)c2c(N)ncnc21 [Example 22] , test system: EIF2AK3 (PERK) catalytic domain (amino acids 536-1116) (Homo sapiens, UniProt Q9NZJ5).
0.001 to 0.025 µM

Turning to the following compound.
Missing value: IC50, EIF2AK3 (PERK) catalytic domain (amino acids 536-1116) (Homo sapiens, UniProt Q9NZJ5), entry Cc1cc(C)n(CC(=O)N2CCc3c2ccc(-c2cn(C)c4ncnc(N)c24)c3F)n1 [Example 31] . Fill in?
0.001 to 0.025 µM

---

molecular target: EIF2AK3 (PERK) catalytic domain (amino acids 536-1116) (Homo sapiens, UniProt Q9NZJ5); construct: EIF2AK3 (PERK) catalytic domain (amino acids 536-1116); purchased Invitrogen, Carlsbad, Calif; assay: PERK In Vitro Activity Assay (Isolated), TR-FRET kinase assay; type: biochemical; settings: isolated PERK enzyme, 1.5 μM ATP, read-out: Biochemical IC50
pIC50: −log10 of the molar value.
Provide the reported pIC50 of each item.

Solved entries (count: 7):
Return reported pIC50; argument: Cn1cc(-c2ccc3c(c2F)CCN3C(=O)C(N)c2ccccc2)c2c(N)ncnc21 (single isomer, unassigned) [Example 3]
7.00 to 7.29

How about this compound: Cc1cn2c(C3CC(C)(O)C3)nc(-c3ccc4c(c3F)CCN4C(=O)C(O)c3cccc(F)c3)c2c(N)n1 (single isomer, unassigned) [Example 14]
7.60 to 9.00

Moving on to the next compound: `Cc1cccc(CC(=O)N2CCc3c2ccc(-c2nc(C)n4ccnc(N)c24)c3F)n1`
7.30 to 7.59

Lookup Cc1cccc(C(O)C(=O)N2CCc3c2ccc(-c2nc(C4CC(C)(O)C4)n4cc(C)nc(N)c24)c3F)n1 (single isomer, unassigned) [Example 18]
7.00 to 7.29

Continue with Cc1nc(N)c2c(-c3ccc4c(c3)CCN4C(=O)C(O)c3cc(F)cc(C(F)(F)F)c3)cn(C)c2n1 (single isomer, unassigned) [Example 19]
7.60 to 9.00

Also, `Cc1cccc(CC(=O)N2CCc3c2ccc(-c2nc(C)n4c(C)c(C)nc(N)c24)c3F)n1` please.
7.00 to 7.29

Can you handle Cc1cccc(C(O)C(=O)N2CCc3c2ccc(-c2nc(C4CC(C)(O)C4)n4cc(C)nc(N)c24)c3F)n1 (single isomer, unassigned) [Example 17] next?
7.00 to 7.29

More entries:
Which measured pIC50 value corresponds to Cn1cc(-c2ccc3c(c2F)CCN3C(=O)C(N)c2ccccc2)c2c(N)ncnc21 (single isomer, unassigned) [Example 4] ?
6.60 to 7.00
